- target_entity: soluble guanylate cyclase (human GUCYA3/GUCYB3) overexpressed in CHO cells (Homo sapiens, UniProt Q02108+Q02153)
- Sequence (Q02108 whole entry partner): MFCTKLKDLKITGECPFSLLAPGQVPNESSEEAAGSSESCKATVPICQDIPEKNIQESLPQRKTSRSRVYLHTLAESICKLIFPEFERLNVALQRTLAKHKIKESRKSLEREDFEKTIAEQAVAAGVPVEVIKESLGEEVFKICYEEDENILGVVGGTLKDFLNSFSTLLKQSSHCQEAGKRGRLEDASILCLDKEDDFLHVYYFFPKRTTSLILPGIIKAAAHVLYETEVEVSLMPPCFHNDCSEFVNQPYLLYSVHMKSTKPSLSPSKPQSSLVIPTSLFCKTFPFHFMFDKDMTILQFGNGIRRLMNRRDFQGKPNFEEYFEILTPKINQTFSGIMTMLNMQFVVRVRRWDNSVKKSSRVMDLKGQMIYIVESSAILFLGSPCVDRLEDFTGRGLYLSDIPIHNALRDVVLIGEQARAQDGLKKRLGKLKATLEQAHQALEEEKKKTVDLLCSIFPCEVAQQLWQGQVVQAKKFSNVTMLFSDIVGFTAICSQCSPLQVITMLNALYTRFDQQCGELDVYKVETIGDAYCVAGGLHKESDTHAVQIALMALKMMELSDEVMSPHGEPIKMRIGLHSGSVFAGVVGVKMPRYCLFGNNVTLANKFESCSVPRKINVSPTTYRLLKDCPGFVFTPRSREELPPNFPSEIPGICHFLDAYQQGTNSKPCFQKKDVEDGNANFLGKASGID
- Sequence (Q02153 whole entry): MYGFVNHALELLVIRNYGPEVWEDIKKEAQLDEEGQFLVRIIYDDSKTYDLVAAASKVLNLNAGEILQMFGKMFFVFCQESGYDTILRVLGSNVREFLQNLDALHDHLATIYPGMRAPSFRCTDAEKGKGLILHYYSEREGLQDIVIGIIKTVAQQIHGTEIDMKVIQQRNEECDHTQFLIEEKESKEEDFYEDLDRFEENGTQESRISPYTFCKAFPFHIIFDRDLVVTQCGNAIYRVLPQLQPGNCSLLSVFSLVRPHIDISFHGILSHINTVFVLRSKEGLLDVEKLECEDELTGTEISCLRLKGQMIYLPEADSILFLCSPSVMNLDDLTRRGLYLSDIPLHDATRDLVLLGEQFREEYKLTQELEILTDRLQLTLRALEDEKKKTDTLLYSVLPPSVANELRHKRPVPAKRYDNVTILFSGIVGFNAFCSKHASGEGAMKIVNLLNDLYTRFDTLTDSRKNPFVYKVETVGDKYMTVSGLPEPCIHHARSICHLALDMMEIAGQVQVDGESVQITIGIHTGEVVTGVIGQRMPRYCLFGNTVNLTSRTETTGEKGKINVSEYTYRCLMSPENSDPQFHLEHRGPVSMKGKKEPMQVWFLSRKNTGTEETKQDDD
- experiment_notes: CHO cellular assay (cGMP production, HTRF)
- protocol_conditions: CHO K1 clone 8E10 overexpressing human sGC, Cisbio HTRF, 1 h room temperature, 1 mM IBMX, 20 uM ODQ, minimum quantification limit 0.5 nM
pEC50: −log10 of the molar value.
Would you please tag the item met when its pEC50 is 8 or above, and not met when it is below?

# compound, cat
rows = [
    ("Cc1cc(C2CCN(C(=O)C3CC3)CC2)ccc1OCc1ccsc1-c1cccc(-n2ncc(C(=O)O)c2C)n1", "met"),
    ("Cc1cc(C2CCN(C(=O)C3CC3)CC2)ccc1OCc1cc(Cl)sc1-c1cccc(-n2ncc(C(=O)O)c2C(F)(F)F)n1", "met"),
    ("COC(=O)N1CCC(c2ccc(OCc3ccsc3-c3cccc(-n4ncc(C(=O)O)c4C(F)(F)F)n3)cc2)CC1", "not met"),
    ("COc1cc(C2CCN(C(=O)C3CC3)CC2)ccc1OCc1ccsc1-c1cccc(-n2ncc(C(=O)O)c2C(F)(F)F)n1", "met"),
    ("Cc1cc(COc2ccc([C@@H]3CCN(C(=O)C4CC4)C[C@H]3O)cc2)c(-c2cccc(-n3ncc(C(=O)O)c3C(F)(F)F)n2)s1 (single isomer, unassigned)", "not met"),
    ("Cc1cc(CNc2ccc(C3CCN(C(=O)C4CC4)CC3)cc2C)c(-c2cccc(-n3ncc(C(=O)O)c3C)n2)s1", "met"),
    ("CCc1cc(OCc2cc(C)sc2-c2cccc(-n3ncc(C(=O)O)c3C(F)(F)F)n2)ccc1C1CCN(C(=O)N(C)C)CC1", "met"),
    ("O=C(O)c1cnn(-c2cccc(-c3sccc3COc3ccc(C4CCN(C(=O)C5CC5)CC4)cn3)n2)c1C(F)(F)F", "met"),
    ("CCc1c(C)sc(-c2cccc(-n3ncc(C(=O)O)c3C(F)(F)F)n2)c1COc1ccc(C2CCN(CC(F)(F)F)CC2)cc1C", "met"),
    ("CCCc1cc(COc2ccc(C3CCN(C(=O)CC)CC3)cc2C)c(-c2cccc(-n3ncc(C(=O)O)c3C(F)(F)F)n2)s1", "not met"),
    ("Cc1cc(C2CCN(CC(F)(F)F)CC2)ccc1OCc1c(C)csc1-c1cccc(-n2ncc(C(=O)O)c2C(F)(F)F)n1", "not met"),
    ("O=C(O)c1cnn(-c2cccc(-c3sccc3COc3ccc(C4CCN(C(=O)C5CC5)CC4)cc3C(F)(F)F)n2)c1C(F)(F)F", "not met"),
    ("Cc1cc(C2CCN(C(=O)C3CC3)CC2)ccc1OCc1ccsc1-c1cccc(-n2ncc(C(=O)O)c2C(F)(F)F)n1", "met"),
    ("Cc1cc(C2CCN(C(=O)C3CC3)CC2)ccc1NCc1ccsc1-c1cccc(-n2ncc(C(=O)O)c2C)n1", "met"),
    ("Cc1cc(C2CCN(C(=O)C3CC3)CC2)ccc1NCc1c(C)csc1-c1cccc(-n2ncc(C(=O)O)c2C(F)(F)F)n1", "met"),
    ("Cc1cc(COc2ccc(C3CCN(C(=O)C4CC4)CC3)c(C3CC3)c2)c(-c2cccc(-n3ncc(C(=O)O)c3C(F)(F)F)n2)s1", "met"),
    ("Cc1cc(COc2ccc(C3CCN(C(=O)C4CC4)CC3)cc2F)c(-c2cccc(-n3ncc(C(=O)O)c3C(F)(F)F)n2)s1", "met"),
    ("CCC(=O)N1CCC(c2ccc(OCc3c(C(F)(F)F)csc3-c3cccc(-n4ncc(C(=O)O)c4C(F)(F)F)n3)cc2)CC1", "met"),
    ("CCc1c(C(=O)O)cnn1-c1cccc(-c2sccc2COc2ccc(C3CCN(C(=O)C4CC4)CC3)cc2C)n1", "met"),
    ("CCc1cc(OCc2cc(C)sc2-c2cccc(-n3ncc(C(=O)O)c3C(F)(F)F)n2)ccc1C1CCN(C(=O)C2CC2)CC1", "met"),
    ("CCc1cc(OCc2cc(C)sc2-c2cccc(-n3ncc(C(=O)O)c3C(F)(F)F)n2)ccc1C1CCN(C(=O)CO)CC1", "not met"),
]

Where do these numbers come from? They come from patent US9765067B2.
